B1: PTPN9 (parent)
chain: TQHLPRECLPENLGGYVKIDLATW

Variants of: B1
PROTOCOL_DESCRIPTION: protein stability index of a GFP-peptide fusion (GPS, HEK-293T) (PSI 1-6); higher = more stable;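 further: lentivirally expressed fusions sorted by FACS into six bins by GFP to DsRed ratio, PSI derived from sequencing read proportions per bin multiplied by bin number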
PARTICULARS: c terminus: a fixed tail appended
OUTCOME_MEASURE: protein stability index

TQHLPRECLPENLAGYVKIDLATW    1.96
TQHLPRECLPENLGGYPKIDLATW    2.2
TQHLPRECRPENLGGYVKIDLATW    1.77
TQCLPRECLPENLGGYVKIDLATW    1.91
TQHLPREHLPENLGGYVKIDLATW    2.56
TQHLPRECLPENLGGYEKIDLATW    2.85
TQHLPRECLPENWGGYVKIDLATW    2.54
TQHAPRECLPENLGGYVKIDLATW    1.8
TQHLPRECLSENLGGYVKIDLATW    2.49
TQHLPRECLPENRGGYVKIDLATW    2.43
TQHLPRECLPEHLGGYVKIDLATW    1.92
TQHLPRECIPENLGGYVKIDLATW    1.85
TQHLPRECLPENLGGYVKIGLATW    1.78
TQHLPKECLPENLGGYVKIDLATW    2.2
TQHLPRWCLPENLGGYVKIDLATW    1.93
TQHLPRECLPENLGGYVKIDLATM    2.05
TQHLPRECLPENLGGLVKIDLATW    1.98
IQHLPRECLPENLGGYVKIDLATW    1.72
TQHLPRECLPENLGGQVKIDLATW    2.67
TQHLPRECLPENLGGYVFIDLATW    3.63
TQHLPRECLPEALGGYVKIDLATW    2.41
TQHLPRECLEENLGGYVKIDLATW    2.44
TQHLPRECLPENLTGYVKIDLATW    1.46
TQHLPRECGPENLGGYVKIDLATW    1.61
TQHLPRECLPENLGGYVKIFLATW    2.58
TQHLPRECLPENLGGYVKIDQATW    2.96
TQHLPRECLPENLPGYVKIDLATW    2.38
TQHLPRECLPENLGGYVKIDLATK    3.59
TQHLPRECLPANLGGYVKIDLATW    1.97
TQHLPRECLPEKLGGYVKIDLATW    1.8
TQHLPRECWPENLGGYVKIDLATW    1.9
TQHLPREFLPENLGGYVKIDLATW    2.3
TQHLPRECLPENLGGYVKQDLATW    3.04
TQHLPRECLPEQLGGYVKIDLATW    1.91
TQHLPRECLPNNLGGYVKIDLATW    1.41
TQHLPRECLPENLGGYVKWDLATW    2.46
TQHNPRECLPENLGGYVKIDLATW    2
TQHLPRECLPENLGGYVKIDLATV    2.06
TQHLPRECLPENLGGEVKIDLATW    3.37
